- Experiment description: ATG_Sox_CIS: Attagene CIS-FACTORIAL HepG2 Assay for human SRY-box transcription factor (SOX) (AID 2282960)
- Condition description: HepG2 Attagene cis-factorial SOX reporter, mRNA; actives raise or lower the signal
Active and inactive are the calls of the source. Rule for the calls: active = hit-call score of the fitted dose curve at least 0.9, where 1 is the maximum; inactive = score below 0.9.
Hello, when you answer, please use one of the following outcomes: active, inactive

Task item: GET /call?item= CC(=NC#N)N(C)Cc1ccc(Cl)nc1 returns the recorded outcome of this test.
Reply: inactive

Task item: GET /call?item= O=C(O)c1cc(Oc2ccc(C(F)(F)F)cc2Cl)ccc1[N+](=O)[O-] returns the recorded outcome of this test.
Reply: inactive

Task item: GET /call?item= CCCSP(=O)(OCC)SCCC returns the recorded outcome of this test.
Reply: inactive

Task item: GET /call?item= COc1cc(OC)nc(Sc2cccc(Cl)c2C(=O)O)n1 returns the recorded outcome of this test.
Reply: inactive

Task item: GET /call?item= C=C(C)[C@H]1Cc2c(ccc3c2O[C@@H]2COc4cc(OC)c(OC)cc4[C@@H]2C3=O)O1 returns the recorded outcome of this test.
Reply: inactive

Task item: GET /call?item= Cc1cc(C2CC2)nc(Nc2ccccc2)n1 returns the recorded outcome of this test.
Reply: active

Task item: GET /call?item= C[N+]1(C)CCCCC1 returns the recorded outcome of this test.
Reply: inactive

Task item: GET /call?item= CCOP(=O)(OCC)Oc1cc(C)nc(C(C)C)n1 returns the recorded outcome of this test.
Reply: inactive

Task item: GET /call?item= CCOP(=O)(SC(C)CC)N1CCSC1=O (stereo not drawn) returns the recorded outcome of this test.
Reply: inactive

Task item: GET /call?item= CCOP(=S)(OCC)Oc1ccc([N+](=O)[O-])cc1 returns the recorded outcome of this test.
Reply: inactive

Task item: GET /call?item= CCc1cccc(C)c1N(C(=O)CCl)C(C)COC (stereo not drawn) returns the recorded outcome of this test.
Reply: inactive

Task item: GET /call?item= COP(=O)(OC)C(O)C(Cl)(Cl)Cl (stereo not drawn) returns the recorded outcome of this test.
Reply: inactive

Task item: GET /call?item= CCOP(=S)(OCC)Oc1cc(C)nc(C(C)C)n1 returns the recorded outcome of this test.
Reply: inactive
